In this section we review reported IC50 values for a set of molecules.
# Test system: Plasmodium falciparum
# assay-overview: Antimalarial activity against chloroquine and cycloguanil-resistant Plasmodium falciparum FCR-3/Gambia ring stage infected in human red blood cells assessed as inhibition of [3H]-hypoxanthine incorporation incubated 24 hrs before addition of [3H]-hypoxanthine measured after 24 hrs
# Type: functional, cell-based
observation-type: IC50 (µM)

Cl.NC1=NC(c2ccccc2)NC(NCCCCOc2ccc(Cl)cc2)=N1 (centres undefined)	2.71
Cl.NC1=NC2(CCCCC2)NC(NCCCOc2ccc(Cl)cc2)=N1	7.94
Cl.NC1=NC(c2ccc(F)cc2)NC(NCCCOc2ccc(Cl)cc2)=N1 (centres undefined)	6.21
CC1(C)N=C(N)N=C(NCCCCOc2ccc(Cl)cc2)N1.Cl	7.2
Cl.NC1=NC(c2ccccc2)NC(NCCCOc2ccc(Cl)c(Cl)c2)=N1 (centres undefined)	6.73
Cl.NC1=NC(c2ccccc2)NC(NCCCOc2ccc([N+](=O)[O-])cc2)=N1 (centres undefined)	3.87
Cl.NC1=NC(c2ccccc2)NC(NCCCCCOc2ccc(Cl)cc2)=N1 (centres undefined)	1.36
CN(C)c1ccc(C2N=C(N)N=C(NCCCOc3ccc(Cl)cc3)N2)cc1.Cl (centres undefined)	44.8
Cl.NC1=NC(c2ccccc2)NC(NCCCOc2ccccc2F)=N1 (centres undefined)	10.8
Cl.NC1=NC(c2ccc(F)cc2)NC(NCCc2ccc(Cl)c(Cl)c2)=N1 (centres undefined)	8.41
CC1(C)N=C(N)N=C(NCc2ccccc2)N1.Cl	49.8
CC1(C)N=C(N)N=C(N)N1c1ccc(Cl)cc1 [CYCLOGUANIL]	5
Cl.NC1=NC(c2ccc(C(F)(F)F)cc2)NC(NCCCOc2ccc(Cl)cc2)=N1 (centres undefined)	5.54
Cl.NC1=NC(C2CCCCC2)NC(NCCCOc2ccc(Cl)cc2)=N1 (centres undefined)	4.59
